Assay: Pharmacokinetic profile, IV and oral (Assay 16)
Assay type: in vivo
Settings: rat, plasma, iv, 2 mg/Kg, IV, individual rats, read-out: Cltotal (mL/min/Kg), total plasma clearance
observed.property: clearance
Quick note: number first, unit second.

Prompt line: Would you kindly share the measured clearance for CCNCc1ccc2c(Cl)cc(Cl)c(O)c2n1.Cl ?
Response line: 153 mL/min/kg

* * *

Assay: Pharmacokinetic profile, IV and oral (Assay 16)
Type: in vivo
Details: rat, plasma, iv, 2 mg/kg, Mean ± SD
observed.property: Cmax (µM)
State just the number; it will be interpreted in µM.

INSERT INTO results (compound_structure, unit_of_measurement, value_measured) VALUES
  ('Cn1cnc(CCNC(=O)c2ccc3c(Cl)cc(Cl)c(O)c3n2)c1', 'µM', 25.4);

Please examine the following record next.
Prompt line: Would you kindly share the measured Cmax for CN(C)Cc1ccc2c(Cl)cc(Cl)c(O)c2n1.Cl ?
Response line: 1.59

* * *

System: Neuronal cortical cells treated with Aβ1-42
Assay: Assay for Aβ neurotoxicity and Aβ neuroprotection (Assay 3(c))
Type: cell-based, mouse
Conditions: 20 uM Aβ1-42, 4 days, MTS
Catalogue of molecules with associated % inhibition Abeta toxicity
State just the number; it will be interpreted in %.

INSERT INTO assay_data (molecule, value_measured) VALUES
  ('O=C(O)c1ccc2c(Cl)cc(Cl)c(O)c2n1 [compound 1039]', 9),
  ('Oc1cccc2ccc(-c3ccccn3)nc12 [compound 1006]', 7),
  ('O=C(NCCc1c[nH]cn1)c1ccc2c(Cl)cc(Cl)c(O)c2n1 [compound 1038]', 19),
  ('Oc1cccc2ccc(CN(CCc3c[nH]cn3)Cc3nccs3)nc12 [compound 1002]', 17),
  ('Oc1cccc2ccc(CN(Cc3ccccn3)Cc3nccs3)nc12 [compound 1003]', 17),
  ('Oc1cccc2ccc(CN(Cc3ccccn3)Cc3ccccn3)nc12 [compound 1010]', 12);

Please examine the following record next.
Prompt line: Would you kindly share the measured % inhibition Abeta toxicity for Oc1ccc(/C=C/c2ccc3cccc(O)c3n2)cc1 [compound 89] ?
Response line: −31

* * *

Tested on: Neuronal cortical cells treated with Aβ1-42
Experiment: Assay for Aβ neurotoxicity and Aβ neuroprotection (Assay 3(c))
Assay type: cell-based, mouse
Details: 20 uM Aβ1-42, 4 days, MTS
Catalogue of molecules with associated % inhibition Abeta toxicity
State just the number; it will be interpreted in %.

INSERT INTO assay_data (molecule, experimental_target, value_measured) VALUES
  ('Cn1cnc(CCNC(=O)c2ccc3c(Cl)cc(Cl)c(O)c3n2)c1 [compound 1050]', 'Neuronal cortical cells treated with Aβ1-42', 6),
  ('Oc1cccc2ccc(CN(Cc3ccccn3)Cc3c[nH]cn3)nc12 [compound 1011]', 'Neuronal cortical cells treated with Aβ1-42', 21),
  ('Cc1ccccc1-c1cc(Cl)c2cccnc2c1O [compound 854]', 'Neuronal cortical cells treated with Aβ1-42', 22),
  ('CSc1ccccc1-c1ccc2cccc(O)c2n1 [compound 1005]', 'Neuronal cortical cells treated with Aβ1-42', 1);

Prompt line: Would you kindly share the measured % inhibition Abeta toxicity for COc1cccc(-c2cc(Cl)c3cccnc3c2O)c1 [compound 810] ?
Response line: 11

Prompt line: Would you kindly share the measured % inhibition Abeta toxicity for Oc1c(I)cc(Cl)c2cccnc12 [compound 1, clioquinol, reference compound] ?
Response line: 16

Prompt line: Would you kindly share the measured % inhibition Abeta toxicity for Cc1cccc(-c2ccc3cccc(O)c3n2)n1 [compound 1007] ?
Response line: 9

* * *

Tested on: Neuronal cortical cells
Experiment: Assay for test compound cytoxicity, MTS (Assay 3(d))
Assay type: cell-based, mouse
Conditions: BL6J×129sv, mouse, 4 days, 10 uM
Use 90 as the dividing line for Viable 10 uM, with the line itself on the MET side and lower values as NOT MET.

Look over these answered cases.
INSERT INTO assay_data (compound, label_class) VALUES
  ('Oc1c(-c2ccccc2C(F)(F)F)cc(Cl)c2cccnc12 [compound 864]', 'MET'),
  ('Oc1ccc(Cl)c2cccnc12 [compound 48]', 'NOT MET'),
  ('O=C(NCc1ccccn1)c1cc(O)c2cccc(O)c2n1 [compound 955]', 'MET'),
  ('O=Cc1ccccc1-c1cc(Cl)c2cccnc2c1O [compound 849]', 'MET'),
  ('NCc1ccc2cccc(O)c2n1 [compound 968]', 'MET');

Prompt line: Assess whether reported Viable 10 uM for CCCCN(c1ccc2cccc(O)c2n1)c1ccc2cccc(O)c2n1 [compound 53] sits at 90 or higher.
Response line: MET

Prompt line: Assess whether reported Viable 10 uM for Oc1c(I)cc(-c2ccccc2F)c2cccnc12 [compound 865] sits at 90 or higher.
Response line: NOT MET

* * *

Molecular target: hydrogen peroxide generation by Aβ in the presence of copper (Homo sapiens, UniProt P05067)
Construct: The reaction solutions contained Aβ 1-42 at concentrations in the range of 50 nM to 1 μM
Sequence (P05067 672-713 limits assumed): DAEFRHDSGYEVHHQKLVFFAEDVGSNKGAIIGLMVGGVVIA
Experiment: Fluorometric H2O2 assay (Assay 1)
Format: biochemical
Conditions: Aβ 1-42 with Cu-Gly, DCF/HRP, 37 C 60 min; several values in one cell = repeat determinations; read-out: Peroxide IC50
From the text: Assay 1. Fluorometric H2O2 Assay A fluorometric assay was used to test the ability of a test compound to inhibit hydrogen peroxide generation by Aβ in the presence of copper based on dichlorofluoroscein diacetate (DCF; Molecular Probes, Eugene Oreg.). […] H2O2 concentration may be established by comparing fluorescence with the H2O2 standards. […]
observed.property: IC50

INSERT INTO assay_data (compound_structure, observed_property, value_measured) VALUES
  ('Oc1c(-c2cc(Cl)c3cccnc3c2O)cc(Cl)c2cccnc12', 'IC50', '> 10 µM');

Prompt line: Would you kindly share the measured IC50 for Cc1ccccc1-c1cc(Cl)c2c(-c3ccccc3C)ccnc2c1OC(C)C ?
Response line: > 10 µM

Prompt line: Would you kindly share the measured IC50 for Oc1c(-c2ccc(F)cc2F)cc(Cl)c2cccnc12 ?
Response line: > 10 µM

* * *

Catalogue of molecules with associated Viable 10 uM
Tested on: Neuronal cortical cells
Assay: Assay for test compound cytoxicity, MTS (Assay 3(d))
Assay type: cell-based, mouse
Conditions: BL6J×129sv, mouse, 4 days, 10 uM
Form rule: numeric answer, no unit written next to it.

Answered examples (2):
INSERT INTO assay_data (compound_structure, value_measured) VALUES
  ('Oc1c(-c2ccc(F)cc2)cc(Cl)c2cccnc12', 75.36),
  ('COc1ccc(-c2cc(Cl)c3cccnc3c2O)cc1', 31.13);

Prompt line: Form: Entry = O=[N+]([O-])c1cccc(-c2cc(Cl)c3cccnc3c2O)c1 | System = Neuronal cortical cells | Viable 10 uM = ____
Response line: 78.46

Prompt line: Form: Entry = CN(c1ccccn1)c1ccc2c(Cl)cc(Cl)c(O)c2n1 | System = Neuronal cortical cells | Viable 10 uM = ____
Response line: 68.25

Prompt line: Form: Entry = Nc1ccc(O)c2ncccc12 | System = Neuronal cortical cells | Viable 10 uM = ____
Response line: 71.05

Prompt line: Form: Entry = Oc1c(-c2ccccc2)cc(-c2ccccc2)c2cccnc12 | System = Neuronal cortical cells | Viable 10 uM = ____
Response line: 26.31

Prompt line: Form: Entry = O=C(NCCc1ccccn1)c1ccc2cccc(O)c2n1 | System = Neuronal cortical cells | Viable 10 uM = ____
Response line: 92.8

Prompt line: Form: Entry = N=C(N)NCc1ccc2cccc(O)c2n1 | System = Neuronal cortical cells | Viable 10 uM = ____
Response line: 88.61

Prompt line: Form: Entry = O=C(NCc1ccccn1)c1ccc2cccc(O)c2n1 | System = Neuronal cortical cells | Viable 10 uM = ____
Response line: 84.82

Prompt line: Form: Entry = COc1ccccc1-c1cc(I)c(O)c2ncccc12 | System = Neuronal cortical cells | Viable 10 uM = ____
Response line: 34.97

Prompt line: Form: Entry = NCCNC(=O)c1ccc2cccc(O)c2n1 | System = Neuronal cortical cells | Viable 10 uM = ____
Response line: 95.86

Prompt line: Form: Entry = O=C(CNC(=O)c1cc(O)c2cccc(O)c2n1)NCc1ccccn1 | System = Neuronal cortical cells | Viable 10 uM = ____
Response line: 93.27

* * *

Catalogue of compounds with associated IC50
Biological target: hydrogen peroxide generation by Aβ in the presence of copper (Homo sapiens)
Construct: The reaction solutions contained Aβ 1-42 at concentrations in the range of 50 nM to 1 μM
Assay: Fluorometric H2O2 assay (Assay 1)
Format: biochemical
Conditions: Aβ 1-42 with Cu-Gly, DCF/HRP, 37 C 60 min; several values in one cell = repeat determinations; read-out: Peroxide IC50
Excerpt: Assay 1. Fluorometric H2O2 Assay A fluorometric assay was used to test the ability of a test compound to inhibit hydrogen peroxide generation by Aβ in the presence of copper based on dichlorofluoroscein diacetate (DCF; Molecular Probes, Eugene Oreg.). […] H2O2 concentration may be established by comparing fluorescence with the H2O2 standards. […]

Answered examples (4):
INSERT INTO assay_data (compound, observed_property, value_measured) VALUES
  ('Brc1ccc(OCc2ccccc2)c2ncccc12', 'IC50', '> 10000 nM'),
  ('CC(C)Oc1c(I)cc(Cl)c2cccnc12', 'IC50', '> 10000 nM'),
  ('CC(C)Oc1c(-c2ccc(F)cc2)cc(Cl)c2cccnc12', 'IC50', '> 10000 nM'),
  ('Oc1c(Br)cc(-c2ccccc2)c2cccnc12', 'IC50', '< 1200 nM');

Prompt line: Form: Entry = COc1ccccc1-c1cc(Cl)c2cccnc2c1OC(C)C | System = hydrogen peroxide generation by Aβ in the presence of copper (Homo sapiens) | IC50 = ____
Response line: > 10000 nM

Prompt line: Form: Entry = O=S(=O)(O)c1cc(I)c(O)c2ncccc12 | System = hydrogen peroxide generation by Aβ in the presence of copper (Homo sapiens) | IC50 = ____
Response line: 600 nM

Prompt line: Form: Entry = CC(C)Oc1c(-c2ccccc2F)cc(Cl)c2cccnc12 | System = hydrogen peroxide generation by Aβ in the presence of copper (Homo sapiens) | IC50 = ____
Response line: > 10000 nM

Prompt line: Form: Entry = O=C(O)c1ccc2cccc(O)c2n1 | System = hydrogen peroxide generation by Aβ in the presence of copper (Homo sapiens) | IC50 = ____
Response line: 40000 nM

Prompt line: Form: Entry = CC(C)Oc1c(-c2ccccc2C(F)(F)F)cc(Cl)c2cccnc12 | System = hydrogen peroxide generation by Aβ in the presence of copper (Homo sapiens) | IC50 = ____
Response line: > 10000 nM

Prompt line: Form: Entry = CN(C)c1ccc(-c2cc(Cl)c3cccnc3c2O)cc1 | System = hydrogen peroxide generation by Aβ in the presence of copper (Homo sapiens) | IC50 = ____
Response line: < 700 nM

Prompt line: Form: Entry = Oc1c(I)cc(Cl)c2cccnc12 [compound 1, clioquinol, reference compound] | System = hydrogen peroxide generation by Aβ in the presence of copper (Homo sapiens) | IC50 = ____
Response line: 400 to 500 nM

Prompt line: Form: Entry = CCCCN(c1ccc2cccc(O)c2n1)c1ccc2cccc(O)c2n1 | System = hydrogen peroxide generation by Aβ in the presence of copper (Homo sapiens) | IC50 = ____
Response line: 300 nM

Prompt line: Form: Entry = c1ccc(COc2cccc3cccnc23)cc1 | System = hydrogen peroxide generation by Aβ in the presence of copper (Homo sapiens) | IC50 = ____
Response line: > 10000 nM

Prompt line: Form: Entry = Oc1c(-c2ccsc2)cc(Cl)c2cccnc12 | System = hydrogen peroxide generation by Aβ in the presence of copper (Homo sapiens) | IC50 = ____
Response line: > 10000 nM

Prompt line: Form: Entry = O=C(NCCc1cnc[nH]1)c1cc(O)c2cccc(O)c2n1 | System = hydrogen peroxide generation by Aβ in the presence of copper (Homo sapiens) | IC50 = ____
Response line: 180 nM

Prompt line: Form: Entry = Oc1c(I)cc(I)c2cccnc12 | System = hydrogen peroxide generation by Aβ in the presence of copper (Homo sapiens) | IC50 = ____
Response line: 1000 nM

Prompt line: Form: Entry = COc1ccc(-c2cc(Cl)c3cccnc3c2OC(C)C)cc1 | System = hydrogen peroxide generation by Aβ in the presence of copper (Homo sapiens) | IC50 = ____
Response line: > 10000 nM

Prompt line: Form: Entry = Oc1c(Br)cc(Br)c2cccnc12 | System = hydrogen peroxide generation by Aβ in the presence of copper (Homo sapiens) | IC50 = ____
Response line: 900 nM

Prompt line: Form: Entry = COc1ccccc1-c1cc(-c2ccccc2OC)c2cccnc2c1OC(C)C | System = hydrogen peroxide generation by Aβ in the presence of copper (Homo sapiens) | IC50 = ____
Response line: > 10000 nM

Prompt line: Form: Entry = CC(=O)c1ccc2cccc(O)c2n1 | System = hydrogen peroxide generation by Aβ in the presence of copper (Homo sapiens) | IC50 = ____
Response line: 3700 nM

Prompt line: Form: Entry = Nc1cnc2c(O)c(Cl)cc(Cl)c2c1 [compound 1060, 3-amino-5,7-dichloro-8-hydroxyquinoline] | System = hydrogen peroxide generation by Aβ in the presence of copper (Homo sapiens) | IC50 = ____
Response line: 500 nM

Prompt line: Form: Entry = Cc1ccccc1-c1cc(I)c(OC(C)C)c2ncccc12 | System = hydrogen peroxide generation by Aβ in the presence of copper (Homo sapiens) | IC50 = ____
Response line: > 10000 nM

Prompt line: Form: Entry = CC(C)Oc1c(-c2cccc([N+](=O)[O-])c2)cc(Cl)c2cccnc12 | System = hydrogen peroxide generation by Aβ in the presence of copper (Homo sapiens) | IC50 = ____
Response line: > 10000 nM
